Can you tell me inhibition at 10 µM for the items I'm about to list?
assay: Cytotoxicity against human HCN-1A cells assessed as cell growth inhibition at 10 uM relative to control; format: toxicity, cell-based; settings: read-out: GI
Numbers only, in %.

// known answers, use as guide
| Compound | Units Symbol | inhibition at 10 µM |
| --- | --- | --- |
| CCOC(=O)C1=C(C)NC(C)=C(C(=O)OCC)C1c1cccc2c1OCO2 | % | 33.1 |
| C[C@H]1O[C@H](O[C@H]2[C@H](O)[C@@H](O)[C@@H](O[C@H]3[C@H](O)[C@@H](O)C(O)O[C@@H]3CO)O[C@@H]2CO)[C@H](O)[C@@H](O)[C@@H]1N[C@H]1C=C(CO)[C@@H](O)[C@H](O)[C@H]1O (some centres undefined) [ACARBOSE] | % | 44.3 |
| CCC1=C(C)CN(C(=O)NCCc2ccc(S(=O)(=O)NC(=O)N[C@H]3CC[C@H](C)CC3)cc2)C1=O [GLIMEPIRIDE] | % | 41.6 |

Lab note: next compound to report on.
*Q* Give a short answer stating reported inhibition at 10 µM for COc1cccc2c1C(=O)c1c(O)c3c(c(O)c1C2=O)C[C@@](O)(C(=O)CO)C[C@@H]3O[C@H]1C[C@H](N)[C@H](O)[C@H](C)O1 [DOXORUBICIN] .
*A* 40.9
